- Tested on: prostate-specific antigen (PSA) mRNA
- ASSAY SUMMARY: PSA mRNA levels in LMR20 cells
- Assay type: cell-based, human
- RUN CONDITIONS: LMR20 cells, DHT 10 nM 72 hrs, ASO 1.0 μM
- Experimental: LMR20 cells were plated at 1,500 cells per well in phenol red-free medium with CSS. […] Results are presented in Tables 43-45 as mRNA levels expressed as a percentage of the baseline values. mRNA levels may be lowered or increased after treatment.
Oligonucleotides are written 5' to 3', each unit as a sugar letter and its base; * is a phosphorothioate linkage, no mark a phosphodiester; rarer units and linkages stand in square brackets, end groups in braces. Plain capitals give the bases only. e = 2'-O-(2-methoxyethyl) (MOE); l = locked nucleic acid (LNA); k = constrained ethyl (cEt); [5mC] = 5-methylcytosine; d = 2'-deoxy (DNA)
Record form. Attribute: PSA mRNA levels (% baseline value) after treatment with DHT. Fill in for each entry.
Give bare numbers, in % baseline value.

Some entries whose results are on file:
554221 (ACCAAGTTTCTTCAGC; sugars from the 5' end l3 d10 l3, all phosphorothioate, methylation of C not given here) [compound 554221]: 64
560131 (antisense kT*kT*kG*dA*dT*dT*dT*dA*dA*dT*dG*dG*kT*kT*kG*e[5mC]) [compound 560131]: 35

Look up PSA mRNA levels (% baseline value) after treatment with DHT for the entries below, preserving their order.
1. 569236 (antisense eT*kG*kA*kT*dT*dT*dA*dA*dT*dG*dG*kT*kT*kG*e[5mC]*eA) [compound 569236]
2. 549458 (kG*kT*kT*dG*dA*dT*dT*dT*dA*dA*dT*dG*dG*kT*kT*kG) [compound 549458]

A:
1: 46; 2: 47

----------
- Test system: AR mRNA
- ASSAY SUMMARY: Dose-dependent antisense inhibition of human AR in HuVEC cells (electroporation, qRT-PCR RTS3559, IC50)
- Format: cell-based
- RUN CONDITIONS: HuVEC, ~16 h; Table 12
Oligonucleotides are written 5' to 3', each unit as a sugar letter and its base; * is a phosphorothioate linkage, no mark a phosphodiester; rarer units and linkages stand in square brackets, end groups in braces. Plain capitals give the bases only. e = 2'-O-(2-methoxyethyl) (MOE); k = constrained ethyl (cEt); [5mC] = 5-methylcytosine; d = 2'-deoxy (DNA)
OBSERVABLE: pIC50
Answers are plain numbers, as −log10 of the molar value.

569217 (antisense eG*kT*kT*kG*dA*dT*dT*dT*dA*dA*dT*dG*kG*kT*kT*eG) [compound 569217]: 6.61
549458 (kG*kT*kT*dG*dA*dT*dT*dT*dA*dA*dT*dG*dG*kT*kT*kG) [compound 549458]: 6.33

Look up pIC50 for the entries below, preserving their order.
1. 569214 (antisense kG*kG*kT*dT*dG*dA*dT*dT*dT*dA*dA*dT*kG*kG*kT*eT) [compound 569214]
2. 569221 (antisense eT*eG*kA*kT*kT*dT*dA*dA*dT*dG*dG*dT*dT*kG*k[5mC]*kA) [compound 569221]

A:
[6.58, 6.53]

----------
- RUN CONDITIONS: cynomolgus monkey, in vivo, sc, 40 mg/kg
OBSERVABLE: Platelets (µL)
Numbers only, in µL.

Some entries whose results are on file:
ISIS 584149: antisense compound targeted to human AR (GTCAATATCAAAGCAC; 3-10-3 (S)-cEt gapmer, further chemistry not given here): 478000
TGATTTAATGGTTGCA [ISIS 569216] (cEt/MOE gapmer chemistry, further chemistry not given here): 504000

Then there is this substance:
Q: Need Platelets of TGATTTAATGGTTGCA [ISIS 569213] (cEt/MOE gapmer chemistry, further chemistry not given here) , thanks.
A: 426000

Values from patent USRE48461E1
